test: clinical; conditions: human, in vivo, 450 mg, cycle 1 day 28 of dose-expansion phase, 450 mg (n=10), mean; read-out: Tmax
recorded metric: Tmax (h)
// note: answer is a bare numeric in h

Suppose we examine the compound COc1cc(N2CCC(N3CCN(C)CC3)CC2)ccc1Nc1nc2c(c(Nc3ccccc3S(=O)(=O)NC(C)C)n1)CCN2 ; what Tmax value has been reported?
3

====

assay: clinical; settings: human, in vivo, 450 mg, cycle 1 day 28 of dose-expansion phase, 450 mg (n=10), mean; read-out: T1/2 (converted)
recorded metric: half-life
Write your answer as a measured quantity: the number, then the unit.

Suppose we examine the compound COc1cc(N2CCC(N3CCN(C)CC3)CC2)ccc1Nc1nc2c(c(Nc3ccccc3S(=O)(=O)NC(C)C)n1)CCN2 ; what half-life value has been reported?
26.3 h
